Measured on: recombinant human PD-L1 (Sino Biological Inc.) (human, UniProt Q9NZQ7 19-239)
Sequence (Q9NZQ7 19-239 limits assumed): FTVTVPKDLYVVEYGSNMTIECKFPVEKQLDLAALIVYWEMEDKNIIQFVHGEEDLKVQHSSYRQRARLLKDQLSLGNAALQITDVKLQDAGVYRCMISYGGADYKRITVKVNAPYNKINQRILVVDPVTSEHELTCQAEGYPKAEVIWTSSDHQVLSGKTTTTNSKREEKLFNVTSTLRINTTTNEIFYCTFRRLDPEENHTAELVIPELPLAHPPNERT
Method summary: SPR, Biacore X100
Result type: kon (M⁻¹ s⁻¹)
Kindly provide the numeric value in M⁻¹ s⁻¹ only, without the unit symbol.

chimeric anti-human PD-L1 monoclonal antibody (antibody, human IgG1, kappa, V domains shown, expressed in ExpiCHO cells; also called Chimeric mAb; Chimeric antibody) VH: EVQLQQSGAELVKPGASVKLSCTASGFNIEDTYIHWVMQRPEQGLEWIGRIDPANGNTKYDPKFQGKATITADTSSNTAYLQLSSLTSEDTAVYYCGRGLGAWFAYWGQGTLVTVSA VL: DIVMTQSHKVMSTSVGDRVTITCKASQDVHTAVAWIHQKPGQSPKLLIYSASNRYTGVPDRFTGSGSGTDFTFTISSVQAEDLAVYYCQQHYITPLTFGAGTTLELKR    507000

Please turn your attention to the following entry.
Which kon is reported for this binder? humanized anti-human PD-L1 monoclonal antibody VLS15-VHS12 (antibody, human IgG1, kappa, V domains shown) VH: EVQLVQSGAEVKKPGSSVKVSCKASGFNIEDTYIHWVRQAPGQGLEWMGRIDPANGNTKYDPKFQGRVTITADTSTNTAYMELSSLRSEDTAVYYCGRGLGAWFAYWGQGTLVTVSS VL: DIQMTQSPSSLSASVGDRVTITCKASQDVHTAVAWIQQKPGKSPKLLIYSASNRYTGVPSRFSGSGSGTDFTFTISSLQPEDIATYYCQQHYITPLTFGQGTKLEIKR
342000
